Quick list: GI50 per entry.
# System: HCT-15
Starred links: 1 amine or outer side, 2 acyl side, 3 side chain; linkers in the order of their positions; H or OH if unused. Positions of bridges follow the written chain, without caps; N, C: chain ends. Non-standard residues stand in square brackets, D forms with d. Residues, ends and D or L forms follow the SMILES beside them. *: point of attachment. X40 = CC[C@H](C)[C@@H](N[*:1])[C@@H](O)CC(=O)[*:2]; NMeY = CN[C@@H](Cc1ccc(O)cc1)C(=O)O; dNMeL = CN[C@H](CC(C)C)C(=O)O; Hiv = CC(C)[C@H](O)C(=O)O; Pyruvoyl = CC(=O)C(=O)*

# Molecule, Unit string, Limit qualifier, GI50
rows = [
    ("O=C(N/N=C/c1ccccc1)c1c(-c2cccnc2)cnc2ccccc12", "µM", "=", 48),
    ("CC[C@H](C)[C@H]1NC(=O)[C@@H](NC(=O)[C@@H](CC(C)C)N(C)C(=O)[C@@H]2CCCN2C(=O)C(C)=O)[C@@H](C)OC(=O)[C@H](Cc2ccc(OC)cc2)N(C)C(=O)[C@@H]2CCCN2C(=O)[C@H](CC(C)C)NC(=O)[C@H](C(C)C)OC(=O)C[C@@H]1O (Pyruvoyl-P[dNMeL]T[X40][Hiv]LP[NMeY](Me); ester 3-C)", "µM", "=", 0.0252),
    ("O=c1c2cc(Br)ccc2nc(-c2ccccc2Cl)n1NCC1(O)OCC(O)C(O)C1O (stereo not drawn)", "µM", ">", 100),
]
